tested on: Enterococci; format: cell-based; conditions: E. faecalis MMX 1086, VanA VRE
observation.type: MIC

compound="CN[C@H](CC(C)C)C(=O)N[C@H]1C(=O)N[C@@H](CC(N)=O)C(=O)N[C@H]2C(=O)N[C@H]3C(=O)N[C@H](C(=O)N[C@H](C(=O)O)c4cc(O)cc(O)c4-c4cc3ccc4O)[C@H](O)c3ccc(c(Cl)c3)Oc3cc2cc(c3O[C@@H]2O[C@H](CO)[C@@H](O)[C@H](O)[C@H]2O[C@H]2C[C@](C)(N)[C@H](O)[C@H](C)O2)Oc2ccc(cc2Cl)[C@H]1O [Vancomycin]" observation_type=MIC measured_value="> 64 µg/mL"

Taken from patent US20200368312A1.
